- SYSTEM_UNDER_TEST: control human IgG (human)
- EXPERIMENTAL_DETAILS: ELISA, periplasmic extract on control IgG
As shown below, each of these binders has a reported O.D. 450 value.

>  <BINDER>
VHH 018 (3E01) (VHH, Llama single domain antibody; also called 49(#18); VHCDR3 49(#18); not shown: tags: c-myc tag in periplasmic extract (ELISA, FACS); FLAG and His tags in purified VHH (SPR, infection assays)) VHH: QVQLQESGGGLVQVGGSLRLSCVASGRAPSRYVMGWFRQAPGQEREFVAGIAWSGRAPYADSVKGRSTISRDNAKNTVYLQMNSLKPEDTGVYYCAGGEGAIRWTTLDAYDYWGQGTQVTVSS

>  <UNITS_TEXT>
O.D. 450

>  <O.D. 450>
0.057

$$$$
>  <BINDER>
VHH 020 (3H11) (VHH, Llama single domain antibody; also called 48(#20); VHCDR3 48(#20); not shown: tags: c-myc tag in periplasmic extract (ELISA, FACS); FLAG and His tags in purified VHH (SPR, infection assays)) VHH: QVQLQESGGGLVQVGGSLRLSCVASGRTPSRYVMGWFRQAPGQEREFVAGIAWSGRAPYADSVKGRFVISRDSAKNTVYLQMNSLKSEDTGVYYCAGGEGAILWTTPGAYNYWGQGTQVTVSS

>  <UNITS_TEXT>
O.D. 450

>  <O.D. 450>
0.056

$$$$
>  <BINDER>
VHH 016 (2H11) (VHH, Llama single domain antibody; also called 77(#16); VHCDR3 77(#16); not shown: tags: c-myc tag in periplasmic extract (ELISA, FACS); FLAG and His tags in purified VHH (SPR, infection assays)) VHH: EVQLVESGGGLVQAGGSLRLSCAASGRTFAPGSMGWFRQAPGKEREFVAAHRWSGSAYYADYADSVEGRFTISRDYAKNMVYLQMNSLKPGDTAVYYCAAGVGSAAQYTYWGRGTQVTVSS

>  <UNITS_TEXT>
O.D. 450

>  <O.D. 450>
0.06

$$$$
>  <BINDER>
VHH 001 (1B02) (VHH, Llama single domain antibody; also called 144(#1); VHCDR3 144(#1); not shown: tags: c-myc tag in periplasmic extract (ELISA, FACS); FLAG and His tags in purified VHH (SPR, infection assays)) VHH: EVQLVESGGGLVQAGGSLSLSCAASGGTLAMYAMSWFRQAPGKDRKFVAAINTSGRYSRYADSVKGRFTISRDNAKNTATLQMNSLEPEDTAVYYCAATDKGNWALAMSYDYWGQGTQVTVSS

>  <UNITS_TEXT>
O.D. 450

>  <O.D. 450>
0.059

$$$$
